Tested on: 782815-120-R-J1-PDC complex spheroid viability;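 also: spheroids exposed to compounds for 7 days before reading; 100% = DMSO vehicle control viability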
Protocol details: Anticancer human tumor 782815-120-R-J1-PDC patient-derived colon adenocarcinoma cell line growth inhibition [RAS]
Conditions used: second compound 0.0316 µM; first compound 10 µM; stronger effect = lower value
Reported viability, T/C values for a set of molecules
Value kind: viability, T/C (%)

Molecule	Value kind	Unit info	Endpoint result
NC1c2ccccc2OC12CCN(c1cnc3c(N4CCCc5ncccc54)n[nH]c3n1)CC2 (stereo not drawn) + C=CC(=O)N1CCN(c2nc(OCC3CCCN3C)nc3c(F)c(-c4nc(N)cc(C)c4C(F)(F)F)c(Cl)cc23)C(C)C1	viability, T/C	%	71.9
Cc1nc(N2CCC3(CC2)COC(C)C3N)c(CO)nc1Sc1ccnc(N)c1Cl (stereo not drawn) + C#Cc1c(F)ccc2cc(O)cc(-c3ncc4c(N5CC6CCC(C5)N6)nc(OCC56CCCN5CC(F)C6)nc4c3F)c12	viability, T/C	%	95.2
Cc1nc(N2CCC3(CC2)COC(C)C3N)c(CO)nc1Sc1ccnc(N)c1Cl (stereo not drawn) + C=CC(=O)N1CCN(c2nc(OCC3CCCN3C)nc3c(F)c(-c4nc(N)cc(C)c4C(F)(F)F)c(Cl)cc23)C(C)C1	viability, T/C	%	101
